Assay: Solubility in buffered cyclodextrin solutions (excess method of Higuchi and Connors)
Type: physicochemical
Conditions: pH = 5.5, 25 °C
observationType: Stability constant K s of HP-β-CD complex

These solved cases illustrate the format of a correct answer.
{"compoundSmiles": "O=c1c2ncn(COCCO)c2nc2[nH]ccn12", "measurement": "8.0 (±1) dm·mol^−1"}
{"compoundSmiles": "O=c1c2ncn(COCCO)c2nc2[nH]c(-c3ccc(-c4ccccc4)cc3)cn12", "measurement": "100 (±8)"}
{"compoundSmiles": "Cc1cn2c(=O)c3nc(Br)n(COCCO)c3nc2[nH]1", "measurement": "27 (±2) dm·mol^−1"}
{"compoundSmiles": "COc1ccc(-c2cn3c(=O)c4ncn(COCCO)c4nc3[nH]2)cc1", "measurement": "213 (±6) dm·mol^−1"}
{"compoundSmiles": "O=c1c2ncn(COCCO)c2nc2[nH]c(-c3ccccc3)cn12", "measurement": "122 (±2) dm·mol^−1"}

Now consider a different molecule.
Read off the recorded Stability constant K s of HP-β-CD complex for O=c1c2ncn(COCCO)c2nc2[nH]c(-c3ccc4ccccc4c3)cn12
297 (±7)

----------
Collected solubility values appear next to each entry.
Assay: Solubility in water or 1-octanol (saturated solutions, UV-Vis)
Assay type: physicochemical
Settings: thermodynamic from solid; water, 25 °C (Table 1); read-out: Solubility in water, C w
Write the value in mM as a bare number.

These solved cases illustrate the format of a correct answer.
{"compound": "Nc1nc(O)c2ncn(COC(CO)CO)c2n1 [Compound 3, reference compound]", "measureUnit": "mM", "solubility": 12.3}
{"compound": "O=c1c2ncn(COCCO)c2nc2[nH]c(-c3ccc4ccccc4c3)cn12", "measureUnit": "mM", "solubility": 0.166}

Read off the recorded solubility for Cc1cn2c(=O)c3ncn(COCCO)c3nc2[nH]1
18.7

----------
Test: Solubility in buffered cyclodextrin solutions (excess method of Higuchi and Connors)
Type: physicochemical
Conditions: phosphate buffer with HP-β-CD, aqueous with cosolvent or surfactant or cyclodextrin, thermodynamic from solid; Buffer + HP-β-CD (2 × 10^−2 mol·dm^−3), pH = 5.5, 37 °C; read-out: Solubility, C 6-Ph-O-Me-TACV
Description: Solubilities of the studied compounds was ensured according to the excess method of Higuchi and Connors. […] After 7 days equilibrium was reached and then the suspensions were centrifuged and the absorbance of the studied compounds was measured by UV-Vis spectrophotometry using a Shimadzu UV 2401 PC Spectrometer equipped with a thermostatically controlled cell compartment. […]
observationType: solubility at 7 days (µM)
Write the value in µM as a bare number.

Read off the recorded solubility at 7 days for COc1ccc(-c2cn3c(=O)c4ncn(COCCO)c4nc3[nH]2)cc1
374

----------
Assay: Solubility in water or 1-octanol (saturated solutions, UV-Vis)
Assay type: physicochemical
Conditions: 25 °C
observationType: Solubility ratio in 1-octanol and water, C oc/C w
Please reply with the value in numeric form only.

{"compoundSmiles": "O=c1c2ncn(COCCO)c2nc2[nH]c(-c3ccc(Br)cc3)cn12", "measurement": 2.14}

Read off the recorded Solubility ratio in 1-octanol and water, C oc/C w for CC(C)(C)c1cn2c(=O)c3ncn(COCCO)c3nc2[nH]1
5.16

Read off the recorded Solubility ratio in 1-octanol and water, C oc/C w for Nc1nc2c(nc(Br)n2COCCO)c(=O)[nH]1
0.430

Read off the recorded Solubility ratio in 1-octanol and water, C oc/C w for Cc1cn2c(=O)c3nc(Br)n(COCCO)c3nc2[nH]1
0.108

Data provenance: paper PMC3646166
